Data credit: PubChem BioAssay (NCI)

The following compounds are listed with their measured TGI values.
- Test system: MDA-MB-231 breast
- PROCEDURE DETAILS: NCI tumour cell line growth inhibition, 48 h
PARAMETER: TGI

SMI: CN(C)CCNC(=O)c1cccc(NC(=O)c2ccccc2)c1[N+](=O)[O-]
MEASURED VALUE: > 100 µM
//
SMI: Nc1c(C(=O)c2cccc(-c3ccncc3)c2)cnn1-c1ccc(F)cc1
MEASURED VALUE: > 25 µM
//
SMI: CCOP(=O)(OCC)/C(C#N)=C/c1nccn1C
MEASURED VALUE: > 100 µM

----------
- Test system: OVCAR-4 ovarian
- PROCEDURE DETAILS: NCI tumour cell line growth inhibition, 48 h

COMPOUND: S=c1nc(COc2ccc(Cl)cc2)[nH][nH]1
TGI: > 100 µM
--
COMPOUND: CCN(CC)c1c(C)c(C(=O)OC)nn1-c1ccccc1
TGI: > 100 µM
--
COMPOUND: COc1cccc(C=O)c1[O-].COc1cccc(C=O)c1[O-].[Cu+2]
TGI: 6.85 µM
--
COMPOUND: O=c1[nH]c2c3ccncc3cc(-c3cccc(Cl)c3)c2c2cnccc12
TGI: > 100 µM
--
COMPOUND: O=C1CC2C=CC1C2CO (centres undefined)
TGI: > 100 µM
--
COMPOUND: COc1ccc(N2C(=O)C3c4[nH]c5c(C)cccc5c4C4CCC(c5ccccc5)CC4C3C2=O)cc1 (centres undefined)
TGI: 26.6 µM
--
COMPOUND: COC(=O)C1(C(=O)OC)N=C(C)OC1c1ccoc1 (centres undefined)
TGI: > 100 µM
--
COMPOUND: CNC[C@@H](NC(=O)c1ccc(-c2nc([C@H]3CC[C@H](O)[C@@H](F)C3)cnc2N)cc1F)c1cc(F)cc(Br)c1
TGI: 50.2 µM
--
COMPOUND: CS(=O)(=O)c1ccc(NNc2cc(=O)[nH]c(=O)[nH]2)cc1
TGI: > 100 µM
--
COMPOUND: CN(C)C(=S)/N=c1\ss/c(=N\C(=S)N(C)C)n1C1CCCCC1
TGI: 63 µM
--
COMPOUND: CC(=O)O[C@H]1C(=O)[C@@]2(C)[C@H]([C@H](OC(=O)C3CCCCC3)[C@]3(O)C[C@H](OC(=O)[C@H](O)[C@@H](NC(=O)OC(C)(C)C)c4ccccc4)C(C)=C1C3(C)C)[C@]1(OC(C)=O)CO[C@@H]1C[C@@H]2O
TGI: > 12.5 µM
--
COMPOUND: O=C1CCC[C@]2(CCCC(=O)N2)C1
TGI: > 100 µM
--
COMPOUND: O=[N+]([O-])c1ccc2c3c1[C@H]1O[C@H]1c1cccc(c1-3)[C@@H]1O[C@H]21
TGI: 4.46 µM
--
COMPOUND: O=c1oc2ccccc2c(O)c1/C=N\c1nc(-c2ccc(O)c(O)c2)cs1
TGI: 27.5 µM
--
COMPOUND: C=CCN=C1N=C(C)C(C(=O)OCC)S1 (centres undefined)
TGI: > 100 µM
--
COMPOUND: NCC(O)CSP(=O)(O)O (centres undefined)
TGI: > 100 µM
--
COMPOUND: S=c1[nH]nc(C23CC4CC(CC(C4)C2)C3)n1-c1ccc(Cl)cc1
TGI: > 100 µM
--
COMPOUND: C/C(=N\NC(=O)c1ccccc1N)c1ccccc1O
TGI: > 100 µM
--
COMPOUND: O=C(/C=C/c1ccccc1O)c1cccs1
TGI: > 100 µM
--
COMPOUND: CN(C)c1ccc(N=Nc2ccc(Br)cn2)c(O)c1
TGI: 4.89 µM
--
COMPOUND: O=C(c1cccs1)c1c(C(F)(F)F)n([O-])c2ccc(Cl)cc2[n+]1=O
TGI: > 50 µM
--
COMPOUND: Nc1nc2c(ncn2C2C=CC(COS(N)(=O)=O)C2)c(=O)[nH]1 (centres undefined)
TGI: > 100 µM
--
COMPOUND: O=C(Nc1ccc(Cl)cc1)/C(=C(/[O-])c1ccc(Br)cc1)[n+]1cccc(-c2ccc(Cl)cc2)n1
TGI: 29.4 µM
--
COMPOUND: O=c1[nH]nc(NCCc2ccccc2)c2nnn(Cc3ccccc3)c12
TGI: > 100 µM
--
COMPOUND: CC1[C@@H]2CC=C3C4CCC5Cc6nc7c(nc6C[C@@]5(C)C4CC(=O)[C@]32CO[C@@]1(O)C(O)CC(C)(C)O)CC1CCC2C3=C[C@H]4O[C@@]5(O[C@@](C)(CO)C[C@@H]5O)C(C)[C@@]4(O)[C@]3(C)[C@@H](O)CC2[C@]1(C)C7 (some centres undefined)
TGI: 1.29 µM
--
COMPOUND: Oc1cc(Cn2cnc3c(Cl)nc(Cl)nc32)ccc1C12CC3CC(CC(C3)C1)C2
TGI: 30 µM
--
COMPOUND: N=c1c2ccccc2nc2oc3ccccc3n12
TGI: 61.4 µM
--
COMPOUND: O=c1[nH]c2ccccc2c(O)c1/C=N/C(=S)NCCc1ccccc1
TGI: > 100 µM
--
COMPOUND: Cc1ccc(-n2c(=S)[nH]c3ccc(Br)cc3c2=O)cc1
TGI: > 100 µM
